EC50: recorded values
Target: AGTR1 (Homo sapiens, UniProt P30556)
Construct: host or cells: Pathunter CHO-K1 AGTR1 β-arrestin cell line (CHO-K1)
Test: DiscoveRx IP1 accumulation assay (HTRF), agonist mode, Pathunter CHO-K1 AGTR1 β-arrestin cell line
Type: cell-based
Conditions: read-out: IP-1 EC50
Hi! Could you send only the number? It should be in nM, unit omitted.

Can you look up EC50 on AGTR1 (Homo sapiens, UniProt P30556) for CCc1nc2c(C)cc(C)nc2n1Cc1ccc(-c2cc(OCc3ccccc3)ccc2-c2nnn[nH]2)cc1 ?
20.1

Can you look up EC50 on AGTR1 (Homo sapiens, UniProt P30556) for CCCCC1=NC2(CCCC2)C(=O)N1Cc1ccc(-c2cc(-c3ccccc3)ccc2-c2nn[nH]n2)cc1 ?
80.8

Can you look up EC50 on AGTR1 (Homo sapiens, UniProt P30556) for CCc1nc2c(C)cc(C)nc2n1Cc1ccc(-c2cc(-c3cccc(C)c3)ccc2C(=O)O)cn1 ?
358

---

Target: hAT1R (Homo sapiens, UniProt P30556)
Assay: cell-based
Settings: agonist mode; read-out: BRET P63 EC50
EC50: recorded values
Hi! Could you send only the number? It should be in nM, unit omitted.

These recorded examples may help you get a feel for the data.
> print(dat)
                                   compound                    measurement.target  units.text  value.observed
1  CCCC1=NC2(CCCC2)C(=O)N1Cc1ccc(-c2cc(-c3cc(C)ccn3)ccc2-c2nn[nH]n2)cc1 [Example 116]  hAT1R (Homo sapiens, UniProt P30556)          nM            14.7
2  CCOc1nc2cccc(C(=O)O)c2n1Cc1ccc(-c2cc(-c3ccccc3)ccc2C(=O)O)cc1 [Example 314]  hAT1R (Homo sapiens, UniProt P30556)          nM            67.8

Okay, next one:
Which EC50 value is on record for CCc1nc2c(C)cc(C)nc2n1Cc1ccc(-c2cc(-c3ccccc3C)ccc2-c2nn[nH]n2)cc1 [Example 2] ?
22

---

pEC50: recorded values
Biological target: hAT1R (Homo sapiens)
Sequence (P30556 1-359): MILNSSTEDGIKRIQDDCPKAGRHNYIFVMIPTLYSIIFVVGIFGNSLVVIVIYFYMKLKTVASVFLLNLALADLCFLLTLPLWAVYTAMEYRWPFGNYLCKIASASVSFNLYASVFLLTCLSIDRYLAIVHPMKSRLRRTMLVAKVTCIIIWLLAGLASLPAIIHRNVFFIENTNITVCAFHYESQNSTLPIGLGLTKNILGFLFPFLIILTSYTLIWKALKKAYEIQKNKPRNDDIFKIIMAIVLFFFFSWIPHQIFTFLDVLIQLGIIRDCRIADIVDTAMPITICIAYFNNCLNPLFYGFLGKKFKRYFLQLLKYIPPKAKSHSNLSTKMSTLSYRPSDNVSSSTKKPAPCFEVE
Test: BRET Gq biosensor assay, agonist response, HEK293 cells
Format: cell-based
Conditions: section of the 42nd table directly before the BRET P63 section
Description: BRET β-arrestin2 and Gq Activation Assays In another aspect of the invention, association of the ATIR with signaling proteins is assessed using bioluminescence resonance energy transfer assays (Stephane Angers, Ali Salahpour et al. 2002). This technology measures the association between bioluminescent and fluorescent protein tags. Several of the plasmid constructs used in BRET experiments were previously described. […]
Scale: pEC50 equals -log10([C]), with [C] in mol/L.

> print(dat)
                                     smiles  value.observed
1  CCOc1nc2cccc(C(=O)O)c2n1Cc1ccc(-c2cc(-c3cnc4ccccc4c3)ccc2-c2nn[nH]n2)cc1            7.79

Can you look up pEC50 on hAT1R (Homo sapiens) for CCOc1nc2cccc(C(=O)O)c2n1Cc1ccc(-c2cc(-c3cccc(C)c3)ccc2C(=O)O)cc1 ?
7.09

Can you look up pEC50 on hAT1R (Homo sapiens) for CCCCC(=O)N(Cc1ccc(-c2cc(-c3ccccc3)ccc2-c2nn[nH]n2)cc1)[C@]1(C(=O)O)CC[C@@H](O)CC1 ?
6.81

Can you look up pEC50 on hAT1R (Homo sapiens) for CCCCc1ncc(C(=O)NCC2CC2)n1Cc1ccc(-c2cc(-c3ccccc3)ccc2-c2nn[nH]n2)cc1 ?
7.39

Can you look up pEC50 on hAT1R (Homo sapiens) for CCOc1nc2cccc(C(=O)O)c2n1Cc1ccc(-c2cc(Oc3ccccc3F)ccc2-c2nn[nH]n2)cc1 ?
7.38

Can you look up pEC50 on hAT1R (Homo sapiens) for CCCCC(=O)N(Cc1ccc(-c2cc(-c3cc(C)ccn3)ccc2-c2nn[nH]n2)cc1)C1(C(=O)O)CCCCC1 ?
6.66

Can you look up pEC50 on hAT1R (Homo sapiens) for CCCCc1ncc(C(=O)NCC(C)C)n1Cc1ccc(-c2cc(-c3ccccc3)ccc2-c2nn[nH]n2)cc1 ?
7.02
